So I've got a bunch of compounds here, and I need their inhibition values.
TESTED SYSTEM: Induced myeloid leukemia cell differentiation protein Mcl-1 (Homo sapiens)
METHOD SUMMARY: MCL1-BIM peptide interaction disruptors – biochemical, fluorescence polarization, primary screen (AID 2057);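 further: 0% = DMSO wells and 100% = unlabeled Bim-BH3 peptide control; higher means more loss of mP so more displacement of Bim peptide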
ASSAY CONTEXT: GST-MCL1 / FITC-Bim-BH3 fluorescence polarization; at 10.9 µM; hits give high values
In all, about 320,000 compounds went through this assay and about 2,100 (0.66%) were called active. The full list was thinned out, with actives kept by preference.
The figure you give is taken to be in %; do not add the unit.

Qu. API: value(readout= inhibition, system= Induced myeloid leukemia cell differentiation protein Mcl-1 (Homo sapiens), query= "Cc1ccc(OCC(=O)Nc2ccccc2Sc2ccc(Cl)cc2)c([N+](=O)[O-])n1" )
Ans. 3.45

Qu. Record lookup: for Induced myeloid leukemia cell differentiation protein Mcl-1 (Homo sapiens), what inhibition belongs to "O=C(COC(=O)c1cccc(Br)c1)Nc1cccc2c1C(=O)c1ccccc1C2=O" ?
Ans. -1.24

Qu. API: value(readout=inhibition, system=Induced myeloid leukemia cell differentiation protein Mcl-1 (Homo sapiens)) for record "CCN(CC(=O)NCc1cccs1)c1nnnn1-c1ccccc1"
Ans. 3.16

Qu. Provide the documented inhibition with Induced myeloid leukemia cell differentiation protein Mcl-1 (Homo sapiens) as the system for "O=C(COC(=O)C1CCN(S(=O)(=O)c2ccc3c(c2)OCCO3)CC1)Nc1ccccc1OC(F)F"
Ans. 0.49

Qu. For Induced myeloid leukemia cell differentiation protein Mcl-1 (Homo sapiens), provide inhibition of "CN(c1ccc(OCC(=O)O)cc1)S(=O)(=O)c1ccc2ccccc2c1" please.
Ans. 15.4

Qu. Write down the reported inhibition of "O=C(c1cccnc1)N(c1cc2sc(=O)oc2c2ccccc12)S(=O)(=O)c1ccccc1" , test system: Induced myeloid leukemia cell differentiation protein Mcl-1 (Homo sapiens).
Ans. 23.9

Qu. Kindly state the measured inhibition obtained for "CCOC(=O)c1ccc[n+](CC(=O)Nc2ccccc2OC(F)F)c1" with Induced myeloid leukemia cell differentiation protein Mcl-1 (Homo sapiens).
Ans. -5.72

Qu. So what inhibition did O=C(CCCn1c(SCC(=O)c2ccccc2)nc2ccccc2c1=O)NCC1CCCO1 (stereo not drawn) get with Induced myeloid leukemia cell differentiation protein Mcl-1 (Homo sapiens)?
Ans. 0.98

Qu. # returns recorded inhibition (system: Induced myeloid leukemia cell differentiation protein Mcl-1 (Homo sapiens)) for "CCCSc1ncccc1C(=O)O"
Ans. -3.51

Qu. Form entry - test system: Induced myeloid leukemia cell differentiation protein Mcl-1 (Homo sapiens); read-out: inhibition; compound: "O=C(CCn1c(SCC(=O)c2ccccc2)nc2ccccc2c1=O)NCc1ccc(F)cc1"
Ans. 41.6

Qu. Value wanted: inhibition (Induced myeloid leukemia cell differentiation protein Mcl-1 (Homo sapiens)) of entry "O=C(NCCc1ccccc1)C1CCN(S(=O)(=O)c2ccc(Br)s2)CC1"
Ans. -0.6

Qu. Form: Entry = "Cc1c(-c2ccccc2)nc(N)c(C#N)c1-c1cccs1" | System = Induced myeloid leukemia cell differentiation protein Mcl-1 (Homo sapiens) | inhibition = ____
Ans. 4.53

Qu. GET /values?readout=inhibition&system=Induced myeloid leukemia cell differentiation protein Mcl-1 (Homo sapiens)&item= "O=C1c2ccccc2-c2ncnc3c(N4CCOCC4)cc(N4CCOCC4)c1c23"
Ans. 48.8

Qu. inhibition of "Cc1ccc(C(=O)N/N=C\c2cc(Br)c(Br)o2)cn1" on Induced myeloid leukemia cell differentiation protein Mcl-1 (Homo sapiens)?
Ans. 46

Qu. Look up inhibition with Induced myeloid leukemia cell differentiation protein Mcl-1 (Homo sapiens) for this compound: "Cc1ccc(C(=O)N/N=C/c2cccc3ccccc23)cn1"
Ans. -3.5

Qu. Could you share what inhibition was measured for "COc1ccc(SCCN2CCN(CC(C)C)CCC2=O)cc1" , tested on Induced myeloid leukemia cell differentiation protein Mcl-1 (Homo sapiens)?
Ans. -4.27

Qu. I'm curious: which inhibition was measured for COc1ccc(NC(=O)C(=O)NCC(c2ccco2)N2CCc3ccccc3C2)cc1 (stereo not drawn) tested on Induced myeloid leukemia cell differentiation protein Mcl-1 (Homo sapiens)?
Ans. 2.73

Qu. Value wanted: inhibition (Induced myeloid leukemia cell differentiation protein Mcl-1 (Homo sapiens)) of entry CN1CCc2nc(SC(C(=O)O)c3ccccc3)c(C#N)c(-c3cccs3)c2C1 (stereo not drawn)
Ans. 45.7

Qu. What value of inhibition on Induced myeloid leukemia cell differentiation protein Mcl-1 (Homo sapiens) does "CC(=O)Nc1ccc(S(=O)(=O)N2CCC(C(=O)NC3CC3)CC2)cc1" have?
Ans. -6.89

Qu. What reported inhibition corresponds to "Cn1cccc1/C=C1\SC(=O)N(CC(=O)Nc2ccc(F)cc2)C1=O" on Induced myeloid leukemia cell differentiation protein Mcl-1 (Homo sapiens)?
Ans. -0.64

Qu. Look up inhibition with Induced myeloid leukemia cell differentiation protein Mcl-1 (Homo sapiens) for this compound: "O=C(COC(=O)Cn1cnc2ccccc21)Nc1cccc2c1C(=O)c1ccccc1C2=O"
Ans. 155

Qu. Any idea what inhibition came out for "Oc1ccc(-c2onc3ccc(Cl)cc23)cc1" on Induced myeloid leukemia cell differentiation protein Mcl-1 (Homo sapiens)?
Ans. -2.01

Qu. What value of inhibition on Induced myeloid leukemia cell differentiation protein Mcl-1 (Homo sapiens) does CC(OC(=O)c1ccc2noc(-c3ccccc3)c2c1)C(N)=O (stereo not drawn) have?
Ans. -8.19

Qu. Hello, I am looking for reported inhibition with Induced myeloid leukemia cell differentiation protein Mcl-1 (Homo sapiens) for "CCNC(=S)N(CCN(CC)CC)Cc1cc2cc3c(cc2[nH]c1=O)OCCO3" . Could you help?
Ans. 13.5

Qu. What inhibition appears in the records for this compound with Induced myeloid leukemia cell differentiation protein Mcl-1 (Homo sapiens)? "Cc1nc2cc(S(=O)(=O)C(F)(F)F)ccc2s1"
Ans. -1.41

Qu. Write down the reported inhibition of "COC(=O)c1cc(NS(=O)(=O)c2ccc3c(c2)c(=O)n(C)c(=O)n3C)cc(C(=O)OC)c1" , test system: Induced myeloid leukemia cell differentiation protein Mcl-1 (Homo sapiens).
Ans. 3.04

Qu. Query the reported inhibition for Induced myeloid leukemia cell differentiation protein Mcl-1 (Homo sapiens); item: "O=C(CCCn1c(SCC(=O)c2ccc(F)cc2)nc2ccccc2c1=O)NCc1ccco1"
Ans. 2.72

Qu. Induced myeloid leukemia cell differentiation protein Mcl-1 (Homo sapiens) / inhibition / "CCNc1nc(N)nc(-c2cc(Cl)ccc2OC)n1" : value?
Ans. -1.8

Qu. Write down the reported inhibition of CCOc1ccccc1NC(=O)C1CCCN(S(=O)(=O)c2ccccc2)C1 (stereo not drawn) , test system: Induced myeloid leukemia cell differentiation protein Mcl-1 (Homo sapiens).
Ans. -2.29

Qu. Form entry - test system: Induced myeloid leukemia cell differentiation protein Mcl-1 (Homo sapiens); read-out: inhibition; compound: CC(C)(C)OC(=O)NCCCC1=CC2=CC(=O)C(C)(OC(=O)c3ccco3)C(=O)C2=CO1 (stereo not drawn)
Ans. 81.6

Qu. Request - read-out inhibition | tested on Induced myeloid leukemia cell differentiation protein Mcl-1 (Homo sapiens) | compound CC(C)CCN1CCN(Cc2cn[nH]c2C2CCCCC2)CC1CCO (stereo not drawn)
Ans. -6.25

Qu. Identify the measured inhibition of "O=C(Cn1cnc2ccccc21)Nc1ccccc1-c1ccccc1" for Induced myeloid leukemia cell differentiation protein Mcl-1 (Homo sapiens).
Ans. 6.02

Qu. Recall the recorded inhibition for "COc1ncnc2c1N=C1CC(C)(C)CC(N)=C1S2" with Induced myeloid leukemia cell differentiation protein Mcl-1 (Homo sapiens) and state it.
Ans. 191

Qu. API: value(readout= inhibition, system= Induced myeloid leukemia cell differentiation protein Mcl-1 (Homo sapiens), query= "CCC(=O)c1ccc(OCC(=O)Nc2ccc(N3CCCCC3)cc2)cc1" )
Ans. 0.81

Qu. Form field - read-out: inhibition; system: Induced myeloid leukemia cell differentiation protein Mcl-1 (Homo sapiens); submitted item: Cc1ccc(S(=O)(=O)N[C@@H](Cc2ccccc2)C(=O)N2CCC(C(=O)N[C@H](C(=O)O)C(C)O)CC2)cc1 (stereo partly drawn)
Ans. -6.49

Qu. Lab note: need inhibition for "N/C(=N\S(=O)(=O)c1cc(C(F)(F)F)cc(C(F)(F)F)c1)c1cccs1" on Induced myeloid leukemia cell differentiation protein Mcl-1 (Homo sapiens), anyone have it?
Ans. 5.69

Qu. Under Induced myeloid leukemia cell differentiation protein Mcl-1 (Homo sapiens): inhibition value of "CC(C)(C)NC(=O)COC(=O)c1cc(Br)ccc1Cl" ?
Ans. -2.96

Qu. // map "CCCCNc1nc2ccccc2nc1NS(=O)(=O)c1cccs1" to recorded inhibition (system: Induced myeloid leukemia cell differentiation protein Mcl-1 (Homo sapiens))
Ans. 2.76

Qu. Field: inhibition (Induced myeloid leukemia cell differentiation protein Mcl-1 (Homo sapiens)). Entry: "Cc1ccc(C2Nc3cccc4cccc(c34)N2)cc1"
Ans. 53.9

Qu. API: value(readout=inhibition, system=Induced myeloid leukemia cell differentiation protein Mcl-1 (Homo sapiens)) for record CC1(OC(=O)C2CCCC2)C(=O)C=C2C=C(c3ccc(C#N)cc3)OC=C2C1=O (stereo not drawn)
Ans. 26.9

Qu. Given the entry "NS(=O)(=O)c1ccc(N=Nc2c(O)[nH]c3ccc(Br)cc23)cc1" , what inhibition was observed with Induced myeloid leukemia cell differentiation protein Mcl-1 (Homo sapiens)?
Ans. 44.2

Qu. Checklist item: inhibition tested on Induced myeloid leukemia cell differentiation protein Mcl-1 (Homo sapiens), entry "Cc1ccc(OCC(=O)c2cc(C)n(Cc3ccco3)c2C)c([N+](=O)[O-])n1" , value?
Ans. -1.45

Qu. What is its inhibition for Induced myeloid leukemia cell differentiation protein Mcl-1 (Homo sapiens)? Entry: "COc1ccc(OC)c(NC(=O)CN(C)CCOc2ccc(Br)cc2)c1"
Ans. -19.6
